Property: log10(AUC0→t); scope: individual compounds
- measurement.protocol: Rat brain distribution after oral administration of APRE (UPLC-MS/MS)
- conditions.used: rat brain, oral APRE 4 g/kg, mean ± SD, n = 6
measured.parameter: log10(AUC0→t) (log10 of the value in µg·h/kg)

[[record]]
compound = "COc1c2ccoc2cc2oc(=O)ccc12"
experimental_result = 2.62

[[record]]
compound = "CC=C(C)C(=O)OC(C(O)c1cc2ccc(=O)oc2cc1OC)C(C)(C)O (stereo not drawn)"
experimental_result = 1.32

[[record]]
compound = "COc1ccc2ccc(=O)oc2c1CC(O)C(C)(C)O (stereo not drawn) [Compound 11, Meranzin hydrate]"
experimental_result = 3.24

[[record]]
compound = "CC(C)(O)[C@H](O)COc1c2ccoc2cc2oc(=O)ccc12 [Compound 8, oxypeucedanin hydrate]"
experimental_result = 2.50

[[record]]
compound = "CC(C)(O)[C@H]1Cc2cc3ccc(=O)oc3cc2O1"
experimental_result = 2.97

[[record]]
compound = "COc1ccc2ccc(=O)oc2c1CC=C(C)C"
experimental_result = 3.12

[[record]]
compound = "O=c1ccc2cc3ccoc3cc2o1"
experimental_result = 2.55

[[record]]
compound = "CC(C)=CCOc1c2ccoc2cc2oc(=O)ccc12"
experimental_result = 1.19

